- System: Acinetobacter baumannii
Metric: MIC (µg/mL)

P = Cl.O=C(NNc1ccc(F)cc1)C1CCCN1C(=O)N1CCNCC1 (stereo not shown) [Example 18]
Q = O=C(NNc1ccc(F)cc1)C1CCCN1O (stereo not shown) [Example 15]
[ask] Between the entries labelled P and Q , which has a larger MIC value on record? // caller expects the label of the chosen entry
[reply] P

* * *

- System: Enterococcus faecium
- Protocol Details: MIC, standard microtiter dilution method (CLSI M07-A9)
- Assay type: cell-based
- Condition Description: media with 2.5% lysed horse blood, 37° C., 24 hours, read-out: MIC E. faecium
MIC values, listed per item

Completed entries (count: 4):
>  <Molecule>
NC(=O)N1CCCC1C(=O)NNc1ccc(F)cc1 (centres unmarked) [Example 4]

>  <Observed Measurement>
> 128 µg/mL

$$$$
>  <Molecule>
O=C(NNc1ccc(F)cc1)[C@@H]1CCCN1CC1CC1 [Example 25]

>  <Observed Measurement>
> 128 µg/mL

$$$$
>  <Molecule>
NC(=O)N1CCC[C@@H]1C(=O)NNc1ccc(F)cc1 [Example 2]

>  <Observed Measurement>
> 128 µg/mL

$$$$
>  <Molecule>
O=C(NNc1ccc(F)cc1)C1CCCN1O (centres unmarked) [Example 15]

>  <Observed Measurement>
> 128 µg/mL

$$$$

[ask] Param item = Cl.N=C(N)N1CCCC1C(=O)NNc1ccc(F)cc1 (centres unmarked) [Example 30] ; retrieve measured MIC.
[reply] > 128 µg/mL

* * *

Reported values: MIC for Acinetobacter baumannii, one per item.
Metric: MIC (µg/mL)

Completed entries (count: 6):
>  <Compound>
NC(=O)N1CCC[C@@H]1C(=O)NNc1ccc(F)cc1

>  <MIC [µg/mL]>
4

$$$$
>  <Compound>
COc1ccc(NNC(=O)C2CCCN2C(N)=O)cc1 (stereo not shown)

>  <MIC [µg/mL]>
2

$$$$
>  <Compound>
NC(=O)N1CCCC1C(=O)NNc1ccc(OC(F)(F)F)cc1 (stereo not shown)

>  <MIC [µg/mL]>
8

$$$$
>  <Compound>
NC(=O)N1CCCC1C(=O)NNc1ccc(F)cc1 (stereo not shown)

>  <MIC [µg/mL]>
2

$$$$
>  <Compound>
NC(=O)N1CCCC1C(=O)NNc1ccc(Cl)cc1F (stereo not shown)

>  <MIC [µg/mL]>
8

$$$$
>  <Compound>
O=C(NNc1ccc(F)cc1)[C@@H]1CCCN1CC1CC1

>  <MIC [µg/mL]>
0.25

$$$$

a = CN1CCCC1(C)C(=O)NNc1ccc(F)cc1 (stereo not shown)
b = NC(=O)N1CCCC1C(=O)NNc1ccc2c(c1)OCCO2 (stereo not shown)
[ask] Between the entries labelled a and b , which has a larger MIC value on record? // caller expects the label of the chosen entry
[reply] b
(b: 8 µg/mL, a: 0.25 µg/mL)
